- Test System: 5-hydroxytryptamine receptor 7 (Rattus norvegicus, UniProt P32305)
- Sequence (P32305 whole entry): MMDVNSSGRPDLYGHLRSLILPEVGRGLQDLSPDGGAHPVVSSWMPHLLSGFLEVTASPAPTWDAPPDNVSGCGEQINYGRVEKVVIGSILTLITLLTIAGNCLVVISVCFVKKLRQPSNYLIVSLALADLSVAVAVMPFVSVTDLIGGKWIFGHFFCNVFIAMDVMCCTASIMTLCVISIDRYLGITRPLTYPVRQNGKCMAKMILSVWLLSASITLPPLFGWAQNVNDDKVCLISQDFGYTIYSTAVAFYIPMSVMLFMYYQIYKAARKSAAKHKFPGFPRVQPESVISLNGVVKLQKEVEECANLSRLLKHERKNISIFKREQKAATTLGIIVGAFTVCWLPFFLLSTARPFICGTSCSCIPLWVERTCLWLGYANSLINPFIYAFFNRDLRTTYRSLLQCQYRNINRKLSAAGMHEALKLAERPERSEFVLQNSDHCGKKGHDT
Reported Endpoint: pKi
One number for each entry, as −log10 of the molar value.

Example entries begin here.
q: Look up pKi: O=C(CCCN1CCN(c2noc3ccccc23)CC1)c1ccccc1O
a: 7.71

q: Look up pKi: O=C(CCCCCN1CCN(c2ccccn2)CC1)c1ccccc1O
a: 6.98

q: Look up pKi: COc1ccccc1N1CCN(CCCCCC(=O)c2ccccc2O)CC1
a: 8.24

q: Look up pKi: NCCc1c[nH]c2ccc(C(N)=O)cc12
a: 9.29

q: Look up pKi: O=C(CCCCCN1CCN(c2ccccc2)CC1)c1ccccc1O
a: 7.37

Give pKi for each of the items listed below.
1. COc1ccccc1N1CCN(CCCCCC(=O)c2ccc(O)cc2)CC1
2. COc1cccc(C(=O)CCCCN2CCN(c3ccccc3OC)CC2)c1

a:
[7.63, 7.07]

* * *

- Test System: 5-hydroxytryptamine receptor 1A (Rattus norvegicus)
- Sequence (P19327 whole entry): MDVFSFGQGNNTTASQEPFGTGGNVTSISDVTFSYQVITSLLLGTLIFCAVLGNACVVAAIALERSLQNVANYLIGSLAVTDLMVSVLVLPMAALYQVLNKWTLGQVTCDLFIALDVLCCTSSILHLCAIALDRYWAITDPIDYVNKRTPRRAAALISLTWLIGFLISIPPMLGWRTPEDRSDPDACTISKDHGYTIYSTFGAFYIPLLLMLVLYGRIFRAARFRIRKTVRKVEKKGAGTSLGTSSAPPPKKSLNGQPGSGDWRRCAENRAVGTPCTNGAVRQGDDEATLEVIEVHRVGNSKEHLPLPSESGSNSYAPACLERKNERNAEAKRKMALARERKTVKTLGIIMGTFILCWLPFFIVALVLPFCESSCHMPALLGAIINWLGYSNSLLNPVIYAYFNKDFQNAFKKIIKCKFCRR
Reported Endpoint: log10 of Ki (log10 of the value in nM)
// units: nM (pre-log); metric: Ki; scale: log10

Example entries begin here.
q: So what log10 of Ki did COc1cccc(C(=O)CCCN2CCN(c3ccccc3OC)CC2)c1 get with 5-hydroxytryptamine receptor 1A (Rattus norvegicus)?
a: -0.11

q: So what log10 of Ki did COc1ccccc1N1CCN(CCCCCC(=O)c2ccc(O)cc2)CC1 get with 5-hydroxytryptamine receptor 1A (Rattus norvegicus)?
a: 1.15

q: So what log10 of Ki did COc1cccc(C(=O)CCCCCN2CCN(c3ccccc3OC)CC2)c1 get with 5-hydroxytryptamine receptor 1A (Rattus norvegicus)?
a: 0.53

Give log10 of Ki for each of the items listed below.
1. COc1ccccc1C(=O)CCCCCN1CCN(c2noc3ccccc23)CC1
2. COc1ccccc1N1CCN(CCCCC(=O)c2cccc(O)c2)CC1
3. COc1ccccc1N1CCN(CCCCCC(=O)c2ccccc2O)CC1
4. O=C(CCCCCN1CCN(c2cccc(C(F)(F)F)c2)CC1)c1ccccc1O
5. O=C(CCCCN1CCN(c2noc3ccccc23)CC1)c1ccccc1O
6. COc1cccc(C(=O)CCCCN2CCN(c3ccccc3OC)CC2)c1
7. COc1ccccc1N1CCN(CCCCC(=O)c2ccccc2)CC1

a:
2.24
0.57
0.76
2.45
2.96
0.53
0.85

* * *

- Test System: D(4) dopamine receptor (Homo sapiens, UniProt P21917)
- Sequence (P21917 whole entry): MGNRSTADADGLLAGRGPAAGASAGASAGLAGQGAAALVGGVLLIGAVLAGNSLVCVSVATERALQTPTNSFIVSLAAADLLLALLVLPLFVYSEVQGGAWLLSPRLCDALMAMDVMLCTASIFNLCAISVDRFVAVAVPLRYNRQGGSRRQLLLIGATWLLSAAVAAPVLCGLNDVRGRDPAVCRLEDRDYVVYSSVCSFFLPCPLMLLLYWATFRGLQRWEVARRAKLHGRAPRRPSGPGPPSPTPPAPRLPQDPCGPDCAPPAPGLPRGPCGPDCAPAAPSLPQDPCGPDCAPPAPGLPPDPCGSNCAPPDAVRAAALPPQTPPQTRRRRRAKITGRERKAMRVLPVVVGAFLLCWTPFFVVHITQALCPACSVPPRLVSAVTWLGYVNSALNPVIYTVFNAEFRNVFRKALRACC
Task for the reader: assign each of the following compounds its reported pKi.
Numbers only, as −log10 of the molar value.

q: Look up pKi: COc1ccccc1C(=O)CCCCCN1CCN(c2noc3ccccc23)CC1
a: 8.40

---
q: Look up pKi: O=C(CCCCCN1CCN(c2noc3ccccc23)CC1)c1ccccc1O
a: 6.50

* * *

- Test System: 5-hydroxytryptamine receptor 7 (Rattus norvegicus, UniProt P32305)
Task for the reader: assign each of the following compounds its reported Ki.
Give bare numbers, in nM.

q: Look up Ki: O=C(CCCCCN1CCN(c2nc3ccccc3[nH]2)CC1)c1ccccc1O
a: 682

q: Look up Ki: COc1ccc2onc(N3CCN(CCCCCC(=O)c4ccccc4O)CC3)c2c1
a: 462

q: Look up Ki: O=C(CCCCCN1CCN(c2nc3ccccc3o2)CC1)c1ccccc1O
a: 148

q: Look up Ki: COc1ccccc1N1CCN(CCCCCC(=O)c2cccc(O)c2)CC1
a: 26.8

Please find the next compound below.
q: Look up Ki: COc1ccccc1N1CCN(CCCCC(=O)c2ccccc2)CC1
a: 43.5

* * *

- Test System: 5-hydroxytryptamine receptor 1A (Rattus norvegicus, UniProt P19327)
- Sequence (P19327 whole entry): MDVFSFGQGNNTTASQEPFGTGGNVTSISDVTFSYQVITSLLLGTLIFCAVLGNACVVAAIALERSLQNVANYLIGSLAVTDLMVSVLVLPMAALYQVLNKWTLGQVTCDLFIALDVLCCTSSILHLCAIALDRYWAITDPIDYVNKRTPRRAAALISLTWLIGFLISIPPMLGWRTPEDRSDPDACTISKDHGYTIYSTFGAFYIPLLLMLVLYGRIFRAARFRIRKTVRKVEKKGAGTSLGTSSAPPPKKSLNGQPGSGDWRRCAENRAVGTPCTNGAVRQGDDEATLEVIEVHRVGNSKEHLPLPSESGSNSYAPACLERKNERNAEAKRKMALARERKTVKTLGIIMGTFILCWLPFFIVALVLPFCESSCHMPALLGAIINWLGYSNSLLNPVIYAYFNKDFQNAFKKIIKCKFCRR
Reported Endpoint: Ki

q: Look up Ki: CN1CCN(CCCCCC(=O)c2ccccc2O)CC1
a: > 850 nM

q: Look up Ki: O=C(CCCCCN1CCN(c2nc3ccccc3[nH]2)CC1)c1ccccc1O
a: > 850 nM

---
q: Look up Ki: O=C(CCCCCN1CCN(C2CCCCC2)CC1)c1ccccc1O
a: > 850 nM
